- Test system: C. elegans
- TEST_SETTINGS: Table S2, C. elegans SS assay, 110 μM, 0 h, averages of 4 data points
*1 amine or outer side, *2 acyl side, *3 side chain or, on linkers, in order; H or OH if unused. Where a SMILES comes first, the peptide text is derived from it. Bridges are numbered along the chain shown (N, C = ends). [ ]: non-standard residue; d: D form. The star is where a group is joined. hTyr(3S-OH,4S-OH,3'-OSO3H) = N[C@H](C(=O)O)[C@H](O)[C@@H](O)c1ccc(O)c(OS(=O)(=O)O)c1; Orn(4R-OH,5R-OH) = O=C([C@H](C[C@@H](O)[C@@H](O)N[*:3])N[*:1])[*:2]; Pro(3S-OH,4S-Me) = C[C@H]1CN[C@H](C(=O)O)[C@H]1O; X1 = CCCCCOc1ccc(-c2cc(-c3ccc(C(=O)*)cc3)no2)cc1; Gln(3R-OH) = NC(=O)C[C@@H](O)[C@H](N)C(=O)O; Hyp = O=C(O)[C@@H]1C[C@@H](O)CN1
Kindly supply the reported Percentage of motility inhibition 0 h values for the records listed here.
Numbers only, in %.

Req: So what's the measured Percentage of motility inhibition 0 h for this one? C=C(CCC(C(=O)O)[C@H]1[C@H](O)C[C@@]2(C)C3=CC[C@H]4C(C)(C)[C@@H](OC(C)=O)CC[C@]4(C)C3=CC[C@]12C)C(C)C (some centres unmarked) [Dehydropachymic acid]
Resp: 29

Fill in Percentage of motility inhibition 0 h for each of the 7 compounds listed.
1. C[C@@H]1O[C@H]2O[C@H]3[C@@H](OC[C@H](O)[C@@H]3O)OC(=O)[C@]34CCC(C)(C)C[C@H]3C3=CC[C@@H]5[C@@]6(C)C[C@H](O)[C@H](O[C@@H]7O[C@H](CO)[C@@H](O)[C@H](O)[C@H]7O[C@@H]7O[C@@H](COC(=O)C[C@](C)(O)CC(=O)O[C@@H]1[C@@H](O[C@@H]1OC[C@@H](O)[C@H](O)[C@H]1O)[C@H]2O)[C@H](O)[C@@H](O)[C@@H]7O)[C@@](C)(CO)[C@@H]6CC[C@@]5(C)[C@]3(C)C[C@H]4O [Tubeimoside III]
2. C[C@H]1[C@H](C)CC[C@]2(C)CC[C@]3(C)C(=CC(=O)[C@@H]4[C@@]5(C)CC[C@@H](O)[C@](C)(C(=O)O)[C@@H]5CC[C@]43C)[C@H]12
3. COc1cc2c(cc1OC)[C@@H](Cc1ccc(O)c(Oc3cc4c(cc3OC)CCN(C)[C@@H]4Cc3ccc(O)cc3)c1)N(C)CC2
4. CCCCCOc1ccc(-c2cc(-c3ccc(C(=O)N[C@H]4C[C@@H](O)[C@@H](O)NC(=O)[C@@H]5[C@@H](O)[C@@H](C)CN5C(=O)[C@H]([C@H](O)CC(N)=O)NC(=O)[C@H]([C@H](O)[C@@H](O)c5ccc(O)c(OS(=O)(=O)[O-])c5)NC(=O)[C@@H]5C[C@@H](O)CN5C(=O)[C@H]([C@@H](C)O)NC4=O)cc3)no2)cc1.[Na+] [Micafungin (sodium)] (X1-[Orn(4R-OH,5R-OH)]T[Hyp][hTyr(3S-OH,4S-OH,3'-OSO3H)][Gln(3R-OH)][Pro(3S-OH,4S-Me)]; lactam 1-C)
5. COc1cc2oc3cc(O)c(OC)c(CC=C(C)C)c3c(=O)c2c(O)c1CC=C(C)C
6. COc1ccc(-c2cc(=O)c3c(O)cc(O)c(-c4cc(-c5cc(=O)c6c(O)cc(OC)cc6o5)ccc4OC)c3o2)cc1
7. C=C(C(=O)OC1C[C@@H]2[C@H]3O[C@H]3[C@H](C1)N2C)c1ccccc1 (some centres unmarked)

Resp:
1: 0; 2: 2; 3: 34; 4: 3; 5: 30; 6: 0; 7: 14
